Tested on: SN12C
protocol: NCI tumour cell line growth inhibition, 48 h
Active and inactive are the calls of the source. No stated cut-off is given here; in the data, active = GI50 up to about 1.1 µM and inactive = higher.
Outcomes: true (1) (active), false (0) (inactive)

{"columns": ["molecule", "qualitative_label"],
 "data": [
  ["COc1cc(/C=C/C(=O)OCC23CC[C@@]4(C(=O)O)CCC(C)[C@H](C)C4C2=CCC2[C@@]4(C)CC[C@H](O)C(C)(C)C4CC[C@]23C)ccc1O (some centres not stated)", "false (0)"],
  ["COC(CN(C=O)[C@@H](c1ccc(Cl)cc1)c1cc2ccccc2o1)OC", "false (0)"],
  ["O=C1Nc2ccccc2/C1=N/Nc1nc(-c2ccccc2)cs1", "false (0)"],
  ["CC1(C)OCN(c2ccc(S(N)(=O)=O)cc2)Cn2c1nc1ccccc12", "false (0)"],
  ["CN1CCN(C(=S)N(C(=O)c2ccco2)C2CCCCC2)CC1", "false (0)"],
  ["COc1cc(OC)c2c(O)cc(CC(C)O)cc2c1 (configuration not stated)", "false (0)"],
  ["NC(CCCNc1ccc(O)cc1)C(=O)O (configuration not stated)", "false (0)"],
  ["CN(C)/C=N/S(=O)(=O)c1nn2c(C=O)c(-c3ccc([N+](=O)[O-])cc3)nc2s1", "false (0)"],
  ["COC(=O)Nc1nc(=O)c2cc(OC)c(OC)cc2[nH]1", "false (0)"],
  ["CCOC(=O)/C=C/CCO[Si](C)(C)C(C)(C)C", "false (0)"],
  ["Cc1ccc(C)c(NC(=O)/C(=N\\NC(N)=S)C(C#N)c2ccccc2)c1 (configuration not stated)", "false (0)"],
  ["SC1=NNC2(C(Cl)=N1)c1ccccc1-c1ccccc12", "false (0)"],
  ["COc1ccc2c(c1)CCCN2S(=O)(=O)c1ccccc1[N+](=O)[O-]", "false (0)"],
  ["Oc1ccc2c(O)cc(-c3ccccc3)nc2c1", "false (0)"],
  ["O=C(c1ccccc1)C(c1ccccc1)C1(O)C(=O)Nc2ccc([N+](=O)[O-])cc21 (configuration not stated)", "false (0)"],
  ["CCCCc1ccc(Nc2nc(S)c3ncn(COCCO)c3n2)cc1", "false (0)"],
  ["CC(C#N)(c1ccccc1)N(CCc1ccccc1)C(=O)Oc1ccccc1 (configuration not stated)", "false (0)"],
  ["C[C@]12CCc3nonc3C1CC[C@@H]1C2CC[C@]2(C)C(=O)CCC12 (some centres not stated)", "false (0)"],
  ["CN1c2ccccc2S(=O)(=O)n2c(COc3ccccc3)nnc21", "false (0)"],
  ["COc1cccc(-c2cc(O)c3cc(Cl)cnc3n2)c1", "true (1)"],
  ["Cn1cc2ccccc2c1-c1nc(F)nc(Nc2ccc(N)cc2)n1", "false (0)"],
  ["Cc1ccc([N+](=O)[O-])cc1NC(=O)C(=O)Cc1nc2ccc(C(=O)c3ccccc3)cc2nc1O", "false (0)"],
  ["Cc1nn(C(=O)Cc2ccccc2)c2c1C(c1ccccc1O)SC(=N)N2 (configuration not stated)", "false (0)"],
  ["CCOC(=O)c1c2cccccc-2nc1Nc1cccc2c(C)ccnc12", "false (0)"],
  ["Cc1c(Cl)ccc2c1NC(=O)C2(O)CC(=O)c1ccc2ccccc2c1 (configuration not stated)", "false (0)"],
  ["O=C(NCCCl)Nc1cccnc1", "false (0)"],
  ["NCCCNCCCCN1CCOC1=O", "false (0)"],
  ["COc1ccc2c(c1)/C(=C\\c1c(Cl)nc3n1CCS3)C(=O)N2", "false (0)"],
  ["COc1cccc2c1C(=O)c1c(O)c3c(c(O)c1C2=O)C[C@](O)(C(=O)CO)CC3OC1CC(N)C(OC2CCCCO2)C(C)O1 (some centres not stated)", "true (1)"],
  ["O=C(O)CSCc1cccc2ccccc12", "false (0)"],
  ["CN(C)c1nc(NN)c2c(-c3ccccc3)c(-c3ccccc3)oc2n1", "false (0)"],
  ["CN(C)c1ccc(C(=C(c2ccc(N(C)C)cc2)c2ccc(N(C)C)cc2)c2ccc(N(C)C)cc2)cc1", "false (0)"],
  ["c1ccc2c(c1)nc1n2CNCC1", "false (0)"],
  ["Cc1cn(C2CC(O)C(Cn3nncc3Cn3cnc4c(N)ncnc43)O2)c(=O)[nH]c1=O (configuration not stated)", "false (0)"],
  ["C=C1CC[C@@H]2[C@](C)(COC(=O)CCC(=O)O)CCC[C@@]2(C)[C@@H]1CCC1=CC(=O)OC1", "false (0)"],
  ["COC(=O)c1ccc(/C=C/c2cc(O)ccc2O)cc1", "false (0)"],
  ["C/C(=N/NC(=S)Nc1ccccc1C)c1ccccn1", "true (1)"]
]}

---

System: UO-31
protocol: NCI tumour cell line growth inhibition, 48 h
Active and inactive are the calls of the source. Rule as the data show it: active = GI50 up to about 1.1 µM and inactive = higher.
The following compounds are shown together with reported GI50 values.
readout_label: GI50

{"columns": ["smiles_entry", "subject_of_test", "meas_value"],
 "data": [
  ["CCOC(=O)c1nc2ccccc2nc1Nc1ccc(F)cc1", "UO-31", "> 94.4 µM (inactive)"],
  ["[N-]=[N+]=N/C1=C/CCCCC(=O)C1", "UO-31", "> 100 µM (inactive)"],
  ["CN(C)c1ccc(C(=C(c2ccc(N(C)C)cc2)c2ccc(N(C)C)cc2)c2ccc(N(C)C)cc2)cc1", "UO-31", "17.4 µM (inactive)"]
]}

---

Test system: M14
protocol: NCI tumour cell line growth inhibition, 48 h
Active and inactive are the calls of the source. Rule as the data show it: active = GI50 up to about 1.1 µM and inactive = higher.
Outcomes: active, inactive

{"columns": ["molecule", "qualitative_label"],
 "data": [
  ["C=C1CC[C@@H]2[C@](C)(COC(=O)CCC(=O)O)CCC[C@@]2(C)[C@@H]1CCC1=CC(=O)OC1", "inactive"],
  ["COc1ccc2c(=O)oc3c(OC)cc(CCN(C)C)c4c(=O)oc1c2c34", "inactive"],
  ["COc1ccc(C2(C3c4cc(OC)c(OC)cc4CCN3C)SCCCS2)cc1O (stereo unspecified)", "inactive"],
  ["CC1CCC2c3c([nH]c4ccccc34)C3C(=O)N(C4CCCCC4)C(=O)C3C2C1 (stereo unspecified)", "inactive"],
  ["O=C1OC(CC(=O)c2ccc(F)cc2)C(Cl)=C1Cl (stereo unspecified)", "inactive"],
  ["CCN(CCN(CC)C(=O)Nc1ccccc1)C(=O)Nc1ccccc1", "inactive"],
  ["c1ccc(C(=NCCC2CNc3ccccc32)c2ccccc2)cc1 (stereo unspecified)", "inactive"],
  ["Cc1cc(O)c2c(c1)C(=O)C=C(Br)C2=O", "inactive"],
  ["FC(F)(F)c1ccc2c(c1)nc(Cc1ccc(Cl)cc1)n2CC1CCCN2CCCCC12 (stereo unspecified)", "inactive"],
  ["Cc1ccc(NC(=O)c2ccccc2C(=O)O)cc1C", "inactive"],
  ["COC(=O)C(=O)C(C(=O)C(=O)Nc1ccc([N+](=O)[O-])cc1[N+](=O)[O-])c1nc2ccc([N+](=O)[O-])cc2nc1O (stereo unspecified)", "inactive"],
  ["C=CC(=O)C#Cc1cnc(OC)nc1OC", "inactive"],
  ["NC(=O)c1ncn(Cc2ccccc2)c1CNC(N)=S", "inactive"],
  ["N=C(N)N/N=C/c1c(-c2ccc(Cl)cc2)nc2n1CCS2", "inactive"],
  ["Fc1cccc(Cl)c1C1SCc2nc3ccccc3n21 (stereo unspecified)", "inactive"],
  ["COc1cc(OC)c2c(O)cc(CC(C)O)cc2c1 (stereo unspecified)", "inactive"],
  ["C[C@]12CC[C@H]3[C@@H](CCC4=C/C(=N/OCCN5CCCCC5)CC[C@@]43C)[C@@H]1CC[C@@H]2O", "inactive"],
  ["O=C(O)CSCc1cccc2ccccc12", "inactive"],
  ["O=Cc1cc2c(cc1-c1cc3c(cc1C=O)OCO3)OCO2", "inactive"],
  ["CCCCCCCCCCCCCCCCCC(=O)OCC(COC1OC(COP(=O)(O)O)C(O)C(O)C1O)OC(=O)CCCCCCCCCCCCCCCCC (stereo unspecified)", "inactive"],
  ["COc1cccc2c1C(=O)c1c(O)c3c(c(O)c1C2=O)C[C@@](O)(C(=O)CO)CC3OC1CC(NCCCC(OC(C)=O)OC(C)=O)C(O)C(C)O1 (stereo partly specified)", "active"],
  ["Cc1cccc(Nc2nc3ccccc3nc2NS(=O)(=O)c2ccc(N)cc2)c1", "inactive"],
  ["C/C(=N\\NC(=O)C[N+](C)(C)C)c1sc(-c2cccnc2)nc1C", "inactive"],
  ["Cc1cn(C2CC(n3cc(Cn4cc(I)c(=O)[nH]c4=O)nn3)C(CO)O2)c(=O)[nH]c1=O (stereo unspecified)", "inactive"],
  ["C[C@@H](NC(=O)[C@@H]1C[C@]1(C)CO)c1cccc2ccccc12", "inactive"],
  ["CC1=C(C(=O)N[C@@H](CC(C)C)C(=O)O)N2C(=O)[C@@H](NC(=O)[C@@H](N)Cc3ccccc3)[C@H]2SC1", "inactive"],
  ["CCc1n[nH]c(=O)n1N", "inactive"],
  ["Cc1cc2c(c3oc(C4(C)OC4C4OC4C)cc(=O)c13)C(=O)c1c(O)c(C3CC(C)(N(C)C)C(O)C(C)O3)cc(C3CC(N(C)C)C(O)C(C)O3)c1C2=O (stereo unspecified)", "active"],
  ["COc1ccc(C(Nc2ncccn2)c2cc3c(cc2O)OCO3)cc1 (stereo unspecified)", "inactive"],
  ["C=CC/C=C/Cc1csc(C(C)(C)C(O)C/C=C/C(=C)CCNC(=O)OC)n1 (stereo unspecified)", "inactive"],
  ["Cc1cc(Nc2ccc(S(=O)(=O)O)c3cc(S(=O)(=O)O)cc(S(=O)(=O)O)c23)c2ccccc2n1", "inactive"],
  ["CN1c2ccccc2S(=O)(=O)n2c(COc3ccccc3)nnc21", "inactive"],
  ["O=C1Nc2ccccc2/C1=N/Nc1nc(-c2ccccc2)cs1", "inactive"],
  ["CCCCN(CCCC)C(=O)C(=O)C(C(=O)c1ccc(OC)cc1)c1ccc(OC)cc1 (stereo unspecified)", "inactive"],
  ["Cc1cccc(C(C)(C)C)c1NC(=O)C(C#N)C1=C(Cl)C(=O)c2ccccc2C1=O (stereo unspecified)", "inactive"],
  ["c1ccc(COC2C3COC(O3)C(OCc3ccccc3)C2OCc2ccccc2)cc1 (stereo unspecified)", "inactive"],
  ["CCOC(=O)C1CCCc2sc(N)c(C#N)c21 (stereo unspecified)", "inactive"],
  ["O=C(c1ccccc1)c1c(CC(O)c2ccncc2)n(C(=O)c2ccccc2)c2ccccc12 (stereo unspecified)", "inactive"],
  ["CC1=CC(=O)N(c2c(C)cccc2Cl)C(C)N1 (stereo unspecified)", "inactive"],
  ["O=C(O)CCc1nc2c(n1Cc1ccccc1)C(=O)c1ccccc1C2=O", "inactive"],
  ["NC(CCCNc1ccc(O)cc1)C(=O)O (stereo unspecified)", "inactive"]
]}
